Test System: human DP2 receptor (Homo sapiens, UniProt Q9Y5Y4)
Construct: membranes prepared from them
Protocol Text: DP2/CRTH2 radioligand binding assay using [3H]PGD2
Assay Context: membranes of HEK293 cells stably expressing recombinant human DP2; 1 nM [3H]PGD2; read-out: hDP2 IC50
Measured IC50 accompanies every entry in the list below.

Illustrative cases are given below, each with its answer.
>  <Compound>
COc1ccc(CC(=O)O)cc1-c1ccc(C(F)(F)F)cc1C[S+]([O-])c1nnc(C)s1 (stereo not shown)

>  <IC50>
> 10 µM

$$$$
>  <Compound>
COc1ccc(CC(=O)O)cc1-c1ccc(C(F)(F)F)cc1CS(=O)(=O)c1ccccc1

>  <IC50>
1 to 10 µM

$$$$
>  <Compound>
O=C(O)CCn1c2c(c3ccccc31)C[C@H](NS(=O)(=O)c1ccc(F)cc1)CC2 [Ramatroban, reference compound]

>  <IC50>
< 1 µM

$$$$

API: the following record is the query input.
Sample COc1ccc(CC(=O)O)cc1-c1ccc(C(F)(F)F)cc1COc1ccccc1 — what was its IC50?
1 to 10 µM

---

# IC50 per entry
Test System: human DP2 receptor (Homo sapiens)
Construct: membranes prepared from them
Sequence (Q9Y5Y4 1-395): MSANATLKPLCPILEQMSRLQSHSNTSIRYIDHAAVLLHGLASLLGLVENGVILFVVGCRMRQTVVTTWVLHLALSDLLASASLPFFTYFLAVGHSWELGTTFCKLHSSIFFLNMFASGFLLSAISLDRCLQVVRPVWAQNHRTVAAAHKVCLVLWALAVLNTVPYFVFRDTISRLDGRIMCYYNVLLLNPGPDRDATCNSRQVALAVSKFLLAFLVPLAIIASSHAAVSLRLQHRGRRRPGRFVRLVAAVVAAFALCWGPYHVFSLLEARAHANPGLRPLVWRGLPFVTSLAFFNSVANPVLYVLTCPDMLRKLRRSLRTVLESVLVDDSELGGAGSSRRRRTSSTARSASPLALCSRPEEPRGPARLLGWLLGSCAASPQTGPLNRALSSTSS
Protocol Text: DP2/CRTH2 radioligand binding assay using [3H]PGD2
Assay Context: membranes of HEK293 cells stably expressing recombinant human DP2; 1 nM [3H]PGD2; read-out: hDP2 IC50
Protocol: The ability of a compound to bind to the human DP2 receptor is assessed via a radioligand binding assay using [^3H]PGD2. […] Scintillant is then added to the plates and the radioactivity retained on the filters is determined on a Packard TopCount (Perkin Elmer). Specific binding is determined as total radioactive binding minus non-specific binding in the presence of 10 μM PGD2. IC50s were determined using GraphPad prism analysis of drug titration curves.

Sample answers from the record:
>  <Molecule>
COc1ccc(CC(=O)O)cc1-c1ccc(C(F)(F)F)cc1C[S+]([O-])c1ccccc1 (centres unmarked) [Compound 1-7]

>  <IC50>
> 10 µM

$$$$
>  <Molecule>
COc1ccc(CC(=O)O)cc1-c1ccc(C(F)(F)F)cc1CS(=O)(=O)Cc1ccccc1 [Compound 1-12]

>  <IC50>
1 to 10 µM

$$$$
>  <Molecule>
COc1ccc(CC(=O)O)cc1-c1ccc(C(F)(F)F)cc1CSc1nnc(C)s1 [Compound 1-4]

>  <IC50>
< 1 µM

$$$$
>  <Molecule>
COc1ccc(CC(=O)O)cc1-c1ccc(C(F)(F)F)cc1CSC(C)(C)C [Compound 1-3]

>  <IC50>
1 to 10 µM

$$$$

Turning now to a further record.
Entry COc1ccc(CC(=O)O)cc1-c1ccc(C(F)(F)F)cc1C[S+]([O-])C(C)(C)C (centres unmarked) [Compound 1-9] has what IC50?
> 10 µM
